# TARGET: DNA topoisomerase 2-alpha (Homo sapiens)
# METHOD: Inhibition of human topoisomerase 2 at 20 uM
READOUT KIND: inhibition
Answers without a unit are incomplete; give the number and then its unit.

INSERT INTO results (molecule, target, test_value) VALUES
  ('O=c1c2cccnc2oc2cc(OCC3CS3)cc(O)c12 (stereo not drawn)', 'DNA topoisomerase 2-alpha (Homo sapiens)', '9.2%'),
  ('COc1cc([C@@H]2c3cc4c(cc3[C@@H](O[C@@H]3O[C@@H]5CO[C@@H](C)O[C@H]5[C@H](O)[C@H]3O)[C@H]3COC(=O)[C@H]23)OCO4)cc(OC)c1O [ETOPOSIDE]', 'DNA topoisomerase 2-alpha (Homo sapiens)', '13.4%'),
  ('O=c1c2ccccc2[nH]c2cc(OCC3CO3)cc(OCC3CO3)c12 (stereo not drawn)', 'DNA topoisomerase 2-alpha (Homo sapiens)', '8.7%'),
  ('O=c1c2cccnc2oc2cc(OCC3CO3)cc(O)c12 (stereo not drawn)', 'DNA topoisomerase 2-alpha (Homo sapiens)', '8.3%'),
  ('O=c1c2cccnc2oc2cc(OCC3CS3)cc(OCC3CS3)c12 (stereo not drawn)', 'DNA topoisomerase 2-alpha (Homo sapiens)', '8.6%'),
  ('O=c1c2ccccc2[nH]c2cc(OCC3CS3)cc(OCC3CS3)c12 (stereo not drawn)', 'DNA topoisomerase 2-alpha (Homo sapiens)', '8.5%'),
  ('O=c1c2ccccc2[nH]c2cc(OCC3CS3)cc(O)c12 (stereo not drawn)', 'DNA topoisomerase 2-alpha (Homo sapiens)', '8.1%');

O=c1c2ccccc2[nH]c2cc(OCC3CO3)cc(O)c12 (stereo not drawn) yielded inhibition of 12.9%
